biological target: PI3-kinase p110-delta/p85-alpha (Homo sapiens, UniProt O00329); assay: Inhibition of recombinant human full length His-tagged p110delta/p85alpha expressed in baculovirus expression system measured after 60 mins in presence of ATP by ATP-competitive binding assay
Sequence (P27986 whole entry): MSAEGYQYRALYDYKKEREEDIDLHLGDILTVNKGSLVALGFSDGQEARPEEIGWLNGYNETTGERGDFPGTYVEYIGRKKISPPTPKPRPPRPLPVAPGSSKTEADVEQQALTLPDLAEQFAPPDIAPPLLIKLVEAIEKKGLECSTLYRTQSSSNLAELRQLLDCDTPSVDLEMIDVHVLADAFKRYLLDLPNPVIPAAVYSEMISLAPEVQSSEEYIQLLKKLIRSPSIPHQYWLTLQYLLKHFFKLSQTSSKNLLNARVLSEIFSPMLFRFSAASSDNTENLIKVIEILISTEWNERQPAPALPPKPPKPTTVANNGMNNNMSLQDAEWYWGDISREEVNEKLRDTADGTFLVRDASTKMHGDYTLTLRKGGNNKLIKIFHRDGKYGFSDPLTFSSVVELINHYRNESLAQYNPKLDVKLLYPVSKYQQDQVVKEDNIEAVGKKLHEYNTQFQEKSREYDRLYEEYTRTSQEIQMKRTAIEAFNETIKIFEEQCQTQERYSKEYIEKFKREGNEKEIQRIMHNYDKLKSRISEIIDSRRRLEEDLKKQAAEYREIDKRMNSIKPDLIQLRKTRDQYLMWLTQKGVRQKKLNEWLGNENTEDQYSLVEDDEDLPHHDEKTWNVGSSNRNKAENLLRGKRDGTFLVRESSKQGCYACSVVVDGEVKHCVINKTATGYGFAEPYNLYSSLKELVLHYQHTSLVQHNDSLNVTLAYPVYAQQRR
Sequence (O00329 whole entry): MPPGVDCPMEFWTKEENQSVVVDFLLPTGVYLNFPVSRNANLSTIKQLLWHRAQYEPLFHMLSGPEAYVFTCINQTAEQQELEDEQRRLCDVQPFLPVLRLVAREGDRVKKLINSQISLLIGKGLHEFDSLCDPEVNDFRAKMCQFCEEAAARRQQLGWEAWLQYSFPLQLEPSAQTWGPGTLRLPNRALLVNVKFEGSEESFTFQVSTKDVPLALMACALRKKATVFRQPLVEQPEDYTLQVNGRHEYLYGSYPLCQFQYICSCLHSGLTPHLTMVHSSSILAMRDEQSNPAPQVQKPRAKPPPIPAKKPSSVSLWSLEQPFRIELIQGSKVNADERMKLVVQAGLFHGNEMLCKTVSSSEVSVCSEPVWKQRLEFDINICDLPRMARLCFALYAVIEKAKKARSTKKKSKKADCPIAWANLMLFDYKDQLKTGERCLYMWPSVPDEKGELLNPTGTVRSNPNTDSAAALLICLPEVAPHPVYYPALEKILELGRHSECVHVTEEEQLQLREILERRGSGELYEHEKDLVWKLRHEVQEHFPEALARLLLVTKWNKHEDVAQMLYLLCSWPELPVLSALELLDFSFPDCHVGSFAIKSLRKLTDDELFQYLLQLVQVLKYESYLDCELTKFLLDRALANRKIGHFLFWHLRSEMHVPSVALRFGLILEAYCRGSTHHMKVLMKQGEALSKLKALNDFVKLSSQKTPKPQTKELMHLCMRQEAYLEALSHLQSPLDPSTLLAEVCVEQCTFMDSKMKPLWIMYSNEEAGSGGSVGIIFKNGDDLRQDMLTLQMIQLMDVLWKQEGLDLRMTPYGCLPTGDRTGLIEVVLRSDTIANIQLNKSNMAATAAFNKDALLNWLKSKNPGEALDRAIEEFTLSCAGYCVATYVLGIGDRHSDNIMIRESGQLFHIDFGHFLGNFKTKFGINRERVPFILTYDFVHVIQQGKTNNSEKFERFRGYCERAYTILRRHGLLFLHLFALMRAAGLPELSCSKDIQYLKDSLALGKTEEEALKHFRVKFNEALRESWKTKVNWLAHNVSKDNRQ
pIC50: −log10 of the molar value.
Short version: pIC50 at least 9 is true (1), less is false (0).

Examples from the recorded data:
Smiles Notation | Label
O=c1c2c(F)cccc2nc([C@@H](Nc2ncnc3nc[nH]c23)C2CCC2)n1-c1ccccc1 | false (0)
C[C@H](Nc1ncnc2nc[nH]c12)c1nc2cccc(F)c2c(=O)n1-c1ccccc1 | true (1)

Continue with the compound presented below.
Request: Tell me whether pIC50 is at least 9 here: `C[C@H](Nc1ncnc2nc[nH]c12)c1nc2cccc(N)c2c(=O)n1-c1ccccc1`
Result: true (1)

###

target: Phosphatidylinositol 4,5-bisphosphate 3-kinase catalytic subunit gamma isoform (Homo sapiens, UniProt P48736); experiment: Inhibition of recombinant human full length His-tagged p110gamma expressed in baculovirus expression system measured after 60 mins in presence of ATP by ATP-competitive binding assay
Sequence (P48736 whole entry, canonical isoform): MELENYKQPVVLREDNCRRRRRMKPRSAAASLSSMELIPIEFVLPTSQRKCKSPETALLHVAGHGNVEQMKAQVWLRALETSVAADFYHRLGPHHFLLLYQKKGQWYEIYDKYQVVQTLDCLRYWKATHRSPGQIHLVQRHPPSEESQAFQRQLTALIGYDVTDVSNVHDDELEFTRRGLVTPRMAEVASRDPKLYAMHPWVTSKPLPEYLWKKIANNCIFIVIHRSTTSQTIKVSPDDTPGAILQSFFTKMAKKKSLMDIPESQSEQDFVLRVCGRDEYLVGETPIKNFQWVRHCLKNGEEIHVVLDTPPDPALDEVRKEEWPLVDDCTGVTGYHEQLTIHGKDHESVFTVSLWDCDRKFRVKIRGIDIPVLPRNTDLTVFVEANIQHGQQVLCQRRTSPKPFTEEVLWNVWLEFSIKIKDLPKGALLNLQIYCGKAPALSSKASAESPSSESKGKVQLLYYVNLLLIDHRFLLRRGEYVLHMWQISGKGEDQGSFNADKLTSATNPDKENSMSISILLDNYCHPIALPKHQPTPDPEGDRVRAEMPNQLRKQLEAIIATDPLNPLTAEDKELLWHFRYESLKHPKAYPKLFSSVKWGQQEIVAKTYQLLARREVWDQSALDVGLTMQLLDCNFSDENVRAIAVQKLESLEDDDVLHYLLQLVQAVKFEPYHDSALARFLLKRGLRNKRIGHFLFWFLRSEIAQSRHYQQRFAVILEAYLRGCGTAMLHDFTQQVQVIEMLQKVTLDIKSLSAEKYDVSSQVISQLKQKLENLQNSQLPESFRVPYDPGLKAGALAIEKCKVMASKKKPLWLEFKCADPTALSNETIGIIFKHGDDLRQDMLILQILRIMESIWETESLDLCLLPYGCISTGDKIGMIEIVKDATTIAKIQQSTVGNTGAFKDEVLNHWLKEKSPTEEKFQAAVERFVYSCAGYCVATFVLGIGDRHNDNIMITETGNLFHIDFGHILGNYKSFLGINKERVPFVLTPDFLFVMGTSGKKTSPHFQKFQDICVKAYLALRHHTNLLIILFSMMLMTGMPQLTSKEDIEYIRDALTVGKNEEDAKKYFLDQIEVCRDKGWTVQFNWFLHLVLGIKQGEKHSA
Assay Endpoint: IC50 (nM)
Give bare numbers, in nM.

Worked set:
Smiles Notation | Endpoint Value
CC(C)[C@H](Nc1ncnc2nc[nH]c12)c1nc2cccc(Cl)c2c(=O)n1-c1ccccc1 | 62.5
CCC[C@H](Nc1ncnc2nc[nH]c12)c1nc2cccc(F)c2c(=O)n1-c1ccccc1 | 72.2
C[C@H](Nc1ncnc2nc[nH]c12)c1nc2cccc(F)c2c(=O)n1-c1ccccc1 | 15.3
CC[C@H](Nc1ncnc2nc[nH]c12)c1nc2cccc(N)c2c(=O)n1-c1ccccc1 | 24.7
CCC[C@H](Nc1ncnc2nc[nH]c12)c1nc2cccc(C(F)(F)F)c2c(=O)n1-c1ccccc1 | 56.3

// input: 4 compounds below; output: IC50 for each
1. C[C@H](Nc1ncnc2nc[nH]c12)c1nc2cccc(N)c2c(=O)n1-c1ccccc1
2. O=c1c2cc(F)ccc2nc([C@@H](Nc2ncnc3nc[nH]c23)C2CC2)n1-c1ccccc1
3. Nc1cccc2nc([C@@H](Nc3ncnc4nc[nH]c34)C3CC3)n(-c3ccccc3)c(=O)c12
4. O=c1c2c(Cl)cccc2nc([C@@H](Nc2ncnc3nc[nH]c23)C2CCC2)n1-c1ccccc1

Result:
[7.5, 29.2, 24.7, 63.8]

###

target: PI3-kinase p110-delta/p85-alpha (Homo sapiens, UniProt O00329); experiment: Inhibition of recombinant human full length His-tagged p110delta/p85alpha expressed in baculovirus expression system measured after 60 mins in presence of ATP by ATP-competitive binding assay
Would you mind telling me the reported pIC50 of each entry?
One number for each entry, as −log10 of the molar value.

Smiles Notation | Assay Endpoint | Endpoint Value
O=c1c2cc(F)ccc2nc([C@@H](Nc2ncnc3nc[nH]c23)C2CC2)n1-c1ccccc1 | pIC50 | 8.96
CC(C)[C@H](Nc1ncnc2nc[nH]c12)c1nc2cccc(Cl)c2c(=O)n1-c1ccccc1 | pIC50 | 9.30
CCC[C@H](Nc1ncnc2nc[nH]c12)c1nc2cccc(C(F)(F)F)c2c(=O)n1-c1ccccc1 | pIC50 | 8.49
CCC[C@H](Nc1ncnc2nc[nH]c12)c1nc2cccc(F)c2c(=O)n1-c1ccccc1 | pIC50 | 8.97
O=c1c2c(Cl)cccc2nc([C@@H](Nc2ncnc3nc[nH]c23)C2CCC2)n1-c1ccccc1 | pIC50 | 8.77

// input: 4 compounds below; output: pIC50 for each
1. CC[C@H](Nc1ncnc2nc[nH]c12)c1nc2cccc(N)c2c(=O)n1-c1ccccc1
2. O=c1c2c(F)cccc2nc([C@@H](Nc2ncnc3nc[nH]c23)C2CC2)n1-c1ccccc1
3. CCC[C@H](Nc1ncnc2nc[nH]c12)c1nc2cccc(Cl)c2c(=O)n1-c1ccccc1
4. O=c1c2c(Cl)cccc2nc([C@@H](Nc2ncnc3nc[nH]c23)C2CC2)n1-c1ccccc1

Result:
1. 8.89
2. 9.41
3. 9.30
4. 9.22

###

experiment: AUC (last) in Sprague-Dawley rat at 1 mg/kg, po measured for 24 hrs by LC-MS/MS analysis; assay type: ADME, organism-based; set-up: route oral, dose 1 mg/kg, time 24 hrs; details: in vivo
Assay Endpoint: AUC(0-t) at 24 h (ng·h/mL)
Give bare numbers, in ng·h/mL.

Request: Which AUC(0-t) at 24 h is listed for `O=c1c2c(F)cccc2nc([C@@H](Nc2ncnc3nc[nH]c23)C2CC2)n1-c1ccccc1` ?
Result: 81

###

assay: Half life in Sprague-Dawley rat at 1 mg/kg, po measured for 24 hrs by LC-MS/MS analysis; type: ADME, organism-based; settings: in vivo
Assay Endpoint: half-life

Request: Which half-life is listed for `O=c1c2c(F)cccc2nc([C@@H](Nc2ncnc3nc[nH]c23)C2CC2)n1-c1ccccc1` ?
Result: 10.2 h

###

assay: Cmax in Sprague-Dawley rat at 1 mg/kg, po measured for 24 hrs by LC-MS/MS analysis; format: ADME, organism-based; parameters: route oral, dose 1 mg/kg, time 24 hrs; conditions: in vivo
Assay Endpoint: Cmax (ng/mL)
Numbers only, in ng/mL.

Request: Which Cmax is listed for `O=c1c2c(F)cccc2nc([C@@H](Nc2ncnc3nc[nH]c23)C2CC2)n1-c1ccccc1` ?
Result: 18.3

###

test: Tmax in Sprague-Dawley rat at 1 mg/kg, po measured for 24 hrs by LC-MS/MS analysis; type: ADME, organism-based; details: in vivo
Assay Endpoint: Tmax (min)
One number for each entry, in min.

Request: Which Tmax is listed for `O=c1c2c(F)cccc2nc([C@@H](Nc2ncnc3nc[nH]c23)C2CC2)n1-c1ccccc1` ?
Result: 30

###

assay: Half life in Sprague-Dawley rat at 3 mg/kg, po measured for 24 hrs by LC-MS/MS analysis; format: ADME, organism-based; conditions: in vivo
Would you mind telling me the reported half-life of each entry?
One number for each entry, in h.

Worked set:
Compound | Assay Endpoint | Unit Of Measurement | Endpoint Value
CC[C@H](Nc1ncnc2[nH]cnc12)c1nc2cccc(F)c2c(=O)n1-c1ccccc1 [IDELALISIB] | half-life | h | 2.7
O=c1c2c(F)cccc2nc([C@@H](Nc2ncnc3nc[nH]c23)C2CC2)n1-c1ccccc1 | half-life | h | 7.7

Request: Which half-life is listed for `Cc1cccc2nc([C@@H](Nc3ncnc4nc[nH]c34)C3CC3)n(-c3ccccc3)c(=O)c12` ?
Result: 8.3

###

molecular target: PI3-kinase p110-alpha/p85-alpha (Homo sapiens, UniProt P42336); assay: Inhibition of recombinant human full length N-terminal His-tagged p110alpha/p85alpha expressed in baculovirus expression system measured after 60 mins in presence of ATP by ATP-competitive binding assay
Sequence (P27986 whole entry): as the sequence (P27986 whole entry) above
Sequence (P42336 whole entry): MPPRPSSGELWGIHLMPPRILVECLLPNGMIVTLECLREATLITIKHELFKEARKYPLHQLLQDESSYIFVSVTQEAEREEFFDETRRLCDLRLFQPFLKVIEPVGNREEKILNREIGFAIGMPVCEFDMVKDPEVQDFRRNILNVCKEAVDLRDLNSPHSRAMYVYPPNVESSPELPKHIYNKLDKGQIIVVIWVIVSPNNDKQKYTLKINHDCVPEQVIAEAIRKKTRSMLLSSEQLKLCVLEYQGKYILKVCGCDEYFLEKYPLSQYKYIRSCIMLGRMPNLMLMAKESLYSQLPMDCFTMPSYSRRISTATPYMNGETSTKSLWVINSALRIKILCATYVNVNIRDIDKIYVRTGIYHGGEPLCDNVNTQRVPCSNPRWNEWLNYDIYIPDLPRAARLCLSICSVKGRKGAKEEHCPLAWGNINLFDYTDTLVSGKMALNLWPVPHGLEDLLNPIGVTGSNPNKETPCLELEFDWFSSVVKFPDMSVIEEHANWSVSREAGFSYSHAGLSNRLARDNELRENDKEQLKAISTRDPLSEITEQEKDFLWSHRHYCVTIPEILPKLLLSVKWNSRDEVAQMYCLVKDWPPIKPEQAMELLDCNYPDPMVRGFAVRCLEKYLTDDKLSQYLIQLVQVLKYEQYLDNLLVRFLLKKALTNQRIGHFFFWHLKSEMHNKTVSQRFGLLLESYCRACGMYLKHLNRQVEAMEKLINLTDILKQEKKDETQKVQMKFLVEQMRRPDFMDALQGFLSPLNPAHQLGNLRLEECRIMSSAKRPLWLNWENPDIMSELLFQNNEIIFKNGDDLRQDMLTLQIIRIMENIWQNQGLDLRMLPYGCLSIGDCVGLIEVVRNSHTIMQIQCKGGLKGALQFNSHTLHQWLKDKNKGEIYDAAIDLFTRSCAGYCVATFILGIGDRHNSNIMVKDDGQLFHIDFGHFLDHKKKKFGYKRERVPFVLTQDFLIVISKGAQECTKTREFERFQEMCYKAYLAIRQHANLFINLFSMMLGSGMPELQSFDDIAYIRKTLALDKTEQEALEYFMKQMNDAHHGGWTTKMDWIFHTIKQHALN
Assay Endpoint: pIC50
One number for each entry, as −log10 of the molar value.

Smiles Notation | pIC50
CC(C)[C@H](Nc1ncnc2nc[nH]c12)c1nc2cccc(F)c2c(=O)n1-c1ccccc1 | 6.06
O=c1c2cc(F)ccc2nc([C@@H](Nc2ncnc3nc[nH]c23)C2CC2)n1-c1ccccc1 | 6.53
C[C@H](Nc1ncnc2nc[nH]c12)c1nc2cccc(N)c2c(=O)n1-c1ccccc1 | 6.90
O=c1c2c(F)cccc2nc([C@@H](Nc2ncnc3nc[nH]c23)C2CCC2)n1-c1ccccc1 | 6.06

Request: Which pIC50 is listed for `O=c1c2c(Cl)cccc2nc([C@@H](Nc2ncnc3nc[nH]c23)C2CCC2)n1-c1ccccc1` ?
Result: 6.31

###

Would you mind telling me the reported Ratio IC50 of each entry?
organism: Homo sapiens; assay: Selectivity ratio of IC50 for recombinant human full length His-tagged p110gamma expressed in baculovirus expression system to IC50 for recombinant human full length His-tagged p110delta/p85alpha expressed in baculovirus expression system
Answers are plain numbers.

Smiles Notation | Endpoint Value
Cc1cccc2nc([C@@H](Nc3ncnc4nc[nH]c34)C3CC3)n(-c3ccccc3)c(=O)c12 | 95.5
CCC[C@H](Nc1ncnc2nc[nH]c12)c1nc2cccc(C(F)(F)F)c2c(=O)n1-c1ccccc1 | 17.4

// input: 2 molecules below; output: Ratio IC50 for each
1. C[C@H](Nc1ncnc2nc[nH]c12)c1nc2cccc(N)c2c(=O)n1-c1ccccc1
2. O=c1c2c(Cl)cccc2nc([C@@H](Nc2ncnc3nc[nH]c23)C2CCC2)n1-c1ccccc1

Result:
[18.8, 37.5]

// input: 4 molecules below; output: Ratio IC50 for each
1. Nc1cccc2nc([C@@H](Nc3ncnc4nc[nH]c34)C3CC3)n(-c3ccccc3)c(=O)c12
2. CC[C@H](Nc1ncnc2nc[nH]c12)c1nc2cccc(N)c2c(=O)n1-c1ccccc1
3. CC(C)[C@H](Nc1ncnc2nc[nH]c12)c1nc2cccc(Cl)c2c(=O)n1-c1ccccc1
4. O=c1c2c(Cl)cccc2nc([C@@H](Nc2ncnc3nc[nH]c23)C2CC2)n1-c1ccccc1

Result:
[23.1, 19, 125, 17.3]

Request: Which Ratio IC50 is listed for `CCC[C@H](Nc1ncnc2nc[nH]c12)c1nc2cccc(Cl)c2c(=O)n1-c1ccccc1` ?
Result: 36.6
